molecular target: Left-right determination factor 2 (Homo sapiens) (UniProt O00292); assay: small molecules binding LEFTY2 protein – biochemical, small-molecule microarray, 635 nm fluorescence scan, primary screen (AID 1110); settings: higher = more signal
Sequence (O00292 whole entry, looked up): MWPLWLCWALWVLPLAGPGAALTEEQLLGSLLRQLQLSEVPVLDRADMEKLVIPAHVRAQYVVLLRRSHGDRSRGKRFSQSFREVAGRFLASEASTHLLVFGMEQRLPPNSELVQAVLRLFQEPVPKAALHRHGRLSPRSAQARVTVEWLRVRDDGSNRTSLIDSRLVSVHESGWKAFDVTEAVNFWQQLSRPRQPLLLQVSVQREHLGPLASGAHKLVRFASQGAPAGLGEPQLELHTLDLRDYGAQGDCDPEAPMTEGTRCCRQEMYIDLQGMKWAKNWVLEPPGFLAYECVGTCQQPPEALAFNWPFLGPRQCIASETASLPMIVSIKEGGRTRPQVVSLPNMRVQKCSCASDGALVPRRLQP
Returns fulfilled if the recorded composite z-score is greater than or equal to -0.5, and not fulfilled otherwise.

Check out these entries, answers already filled in.
>>> class_name("C=C(/C(=C/C[C@H](OC(=O)c1ccncc1)c1ccc(CO)o1)c1cnc2ccccc2c1)C(C)C")
"fulfilled"
>>> class_name("[N-]=[N+]=Nc1ccccc1[C@@H]1OC(c2ccc(OCCCO)cc2)=N[C@]1(Cc1ccccc1)C(=O)O")
"not fulfilled"

Prompt: State whether the measured composite z-score reaches -0.5, counting equality as reaching it, for C=CC[C@@]1(C(=O)NCCCOC)N=C(c2ccc(OCCCO)cc2)O[C@@H]1c1ccccc1N=[N+]=[N-]
Response: not fulfilled

Prompt: State whether the measured composite z-score reaches -0.5, counting equality as reaching it, for O=C1C2C=CC(C(O)c3ccco3)N(Nc3ccccc3F)C2C(=O)N1c1ccccc1 (stereo not drawn)
Response: fulfilled

Prompt: State whether the measured composite z-score reaches -0.5, counting equality as reaching it, for CO[C@H]1O[C@H](CO)[C@@H](OC(=O)Nc2ccccc2)[C@H](OC(=O)c2cc3ccccc3[nH]2)[C@H]1OC(=O)c1cc2ccccc2[nH]1
Response: fulfilled

Prompt: State whether the measured composite z-score reaches -0.5, counting equality as reaching it, for CCOC(=O)C1=C[C@@H](C(C)C)N(S(=O)(=O)c2ccc(C)cc2)[C@H]1c1ccc(C(F)(F)F)cc1
Response: fulfilled

Prompt: State whether the measured composite z-score reaches -0.5, counting equality as reaching it, for [N-]=[N+]=Nc1ccccc1C[C@]1(C(=O)NCC(O)CO)COC(c2ccc(OCCCO)cc2)=N1 (stereo partly drawn)
Response: fulfilled

Prompt: State whether the measured composite z-score reaches -0.5, counting equality as reaching it, for C=CCN1Cc2ccccc2[C@@H]2OC(c3ccc(OCCCO)cc3)=N[C@]2(CC=C)C1=O
Response: fulfilled

* * *

assay: small molecules captured by biotinylated probe aFST – biochemical, small-molecule microarray, fluorescence 635/667, stem cell growth factor project, primary screen (AID 1086); conditions: higher = more signal;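 note: score merges 667 nm fluorescence with signal-to-noise of each printed compound spot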
Examples of compounds with documented composite z-score follow.
# respond with the number and nothing more

>>> recorded_result("CC(C)=C1C(=O)C(c2ccccc2)=C2CN3C(=O)N(CCc4ccccc4)C(=O)[C@]3(Cc3ccc(C(F)(F)F)cc3)[C@H]21")
0.693
>>> recorded_result("C=C[C@@H](CO)N(Cc1ccc(OC)cc1)S(=O)(=O)c1ccc(Br)cc1")
-0.446
>>> recorded_result("COC(=O)C/C=C/C[C@]1(O)C(=O)N(C)c2ccccc21")
0.164
>>> recorded_result("[N-]=[N+]=Nc1ccccc1C[C@@]1(C(=O)NCCN2CCOCC2)N=C(c2ccc(OCCCO)cc2)O[C@@H]1c1ccccc1N=[N+]=[N-]")
0.98
>>> recorded_result("C=C(C(=O)CC[C@H](OC(=O)c1ccccc1-c1ccccc1C(=O)O)c1cccc(OCCO)c1)C(C)C")
-0.224

Prompt: What value of measured composite z-score is listed for COCCOC(=O)N1C(=O)[C@@]2(c3cc(C#CC4(O)CCCCCC4)ccc31)[C@H](c1ccc(O)cc1)N1[C@H](c3ccccc3)[C@H](c3ccccc3)OC(=O)[C@H]1[C@@H]2C(=O)N1CCN(c2ncccn2)CC1 ?
Response: 0.756

Prompt: What value of measured composite z-score is listed for N#Cc1ccc(NN2C(C(O)c3ccc(Br)cc3)C=CC3C(=O)N(c4ccccc4)C(=O)C32)cc1 (configuration not stated) ?
Response: 0.907
